# Test system: KB
# measurement-description: Antiproliferative activity against human KB cells after 72 hrs by neutral red uptake assay
# Format: functional, cell-based
# applied-conditions: kb
quantity-name: IC50 (µM)

molecule="CC/N=C/c1c(O)c(O)c(C(C)C)c2cc(C)c(-c3c(C)cc4c(C(C)C)c(O)c(O)c(/C=N/CC)c4c3O)c(O)c12 (stereo in doubt; (+)-74)" target_or_system=KB quantity_name=IC50 observed_measurement=1.6
molecule="CC/N=C/c1c(O)c(O)c(C(C)C)c2cc(C)c(-c3c(C)cc4c(C(C)C)c(O)c(O)c(/C=N/CC)c4c3O)c(O)c12 (stereo in doubt; (+/-)-74)" target_or_system=KB quantity_name=IC50 observed_measurement=1
molecule="CC/N=C/c1c(O)c(O)c(C(C)C)c2cc(C)c(-c3c(C)cc4c(C(C)C)c(O)c(O)c(/C=N/CC)c4c3O)c(O)c12 (stereo in doubt; (-)-74)" target_or_system=KB quantity_name=IC50 observed_measurement=0.3
